Biological target: Brd2 (Homo sapiens, UniProt P25440)
Sequence (P25440 whole entry): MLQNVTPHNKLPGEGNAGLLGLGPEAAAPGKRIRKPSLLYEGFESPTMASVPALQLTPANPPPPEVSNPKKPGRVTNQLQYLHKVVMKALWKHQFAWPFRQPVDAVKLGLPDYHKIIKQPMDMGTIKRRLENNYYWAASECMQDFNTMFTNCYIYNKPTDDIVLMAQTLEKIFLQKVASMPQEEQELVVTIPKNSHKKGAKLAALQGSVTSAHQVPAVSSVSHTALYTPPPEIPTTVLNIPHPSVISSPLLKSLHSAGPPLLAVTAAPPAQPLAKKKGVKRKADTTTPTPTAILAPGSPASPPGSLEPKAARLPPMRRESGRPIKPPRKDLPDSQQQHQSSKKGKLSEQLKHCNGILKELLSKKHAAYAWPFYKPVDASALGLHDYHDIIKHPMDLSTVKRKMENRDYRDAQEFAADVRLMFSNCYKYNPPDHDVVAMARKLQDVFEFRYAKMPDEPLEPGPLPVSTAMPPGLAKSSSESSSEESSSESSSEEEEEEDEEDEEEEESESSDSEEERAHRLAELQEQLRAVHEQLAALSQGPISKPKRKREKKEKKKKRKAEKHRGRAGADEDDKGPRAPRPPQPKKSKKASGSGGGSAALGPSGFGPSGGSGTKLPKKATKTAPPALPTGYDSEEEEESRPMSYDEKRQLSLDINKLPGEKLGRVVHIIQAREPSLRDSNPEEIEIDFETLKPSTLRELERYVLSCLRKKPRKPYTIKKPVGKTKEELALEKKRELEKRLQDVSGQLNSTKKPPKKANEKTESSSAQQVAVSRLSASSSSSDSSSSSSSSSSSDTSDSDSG
Assay: Concentration-dependent BET degradation, immunoblot, HeLa cells
Type: cell-based
Parameters: endogenous in cells; host or cells: HeLa
Details: Brd2, 6 h treatment, 1 nM-10 μM, read-out: Dmax (%) maximum degradation observed
Assay Readout: Dmax

The cases that follow already have their Dmax on record.
| Compound | Dmax |
| --- | --- |
| CCCC(NC(=O)/C(C#N)=C/c1nc(Cl)ccc1Cl)c1ccc(OCCOCCOCCOCCOCCOCCOCCNC(=O)c2ccc(-c3ccc4c(c3)[C@H](Nc3ccc(Cl)cc3)C[C@H](C)N4C(C)=O)cc2)cc1 (some centres unmarked) [Example 05IB10] | ≥ 71% |
| CCCC(NC(=O)/C(C#N)=C/c1cccc(Br)n1)c1ccc(OCC=NOCC(=O)NCCOCCOCCOCCOCCOCCNC(=O)c2ccc3c(c2)[C@H](Nc2ccc(Cl)cc2)C[C@H](C)N3C(C)=O)cc1 (some centres unmarked) [Example 05IB3] | ≥ 71% |
| CCCC(NC(=O)/C(C#N)=C/c1cccc(Br)n1)c1ccc(OCCOCCOCCOCCOCCOCCOCCNC(=O)c2ccc(-c3ccc4c(c3)[C@H](Nc3ccc(Cl)cc3)C[C@H](C)N4C(C)=O)cc2)cc1 (some centres unmarked) [Example 05IB6] | ≥ 71% |
| CCCC(NC(=O)/C(C#N)=C/c1cccc(Br)n1)c1ccc(OCC=NOCC(=O)NCCOCCNC(=O)c2ccc3c(c2)[C@H](Nc2ccc(Cl)cc2)C[C@H](C)N3C(C)=O)cc1 (some centres unmarked) [Example 05IB1] | ≤ 25% |

Query: Entry CCCC(NC(=O)C(C#N)Cc1cccc(Br)n1)c1ccc(OCCOCCOCCOCCOCCOCCOCCNC(=O)c2ccc(-c3ccc4c(c3)[C@H](Nc3ccc(Cl)cc3)C[C@H](C)N4C(C)=O)cc2)cc1 (some centres unmarked) [Example 05IB12] : reported Dmax = ?
Response: ≤ 25%
